System: MS2 coat protein
Test: apparent KD of MS2 coat protein; designed switch direction (-1 OFF switch, 1 ON switch): -1; higher = weaker reporter binding
Conditions: input ligand: none
Listed here: items and their measured apparent KD of MS2 coat protein.
Write the value in nM as a bare number.

Previously resolved entries follow.
SEQUENCE_STRING | READOUT_KIND | TEST_VALUE
GCUGGACAAGGAUAUAUAUGACGUGCUUCGGCACGAAGAUCACAUGAGGAUCACCCAUGUAGAAGGUGUCCAGC [E2/8-C2] (Eterna round: R97, puzzle: Exclusion 2) | apparent KD of MS2 coat protein | 91.8
GUCAUCAAACAUGGGUGUAACAUGAGGAUCACCCAUGUUAUCAAGUUUUUUGCUCGUCUUAUAAUAAGUUUGAUGAC [Antenna 13 - Jieux - Sensor, turn-off variant 1] (Eterna round: R97, puzzle: Sensor, turn-off variant 1) | apparent KD of MS2 coat protein | 97.6

If you can, please state the reported apparent KD of MS2 coat protein value of AUAAAUCAUGUAGGAUAUGCGUGGCGAAGCUAUGCAGAAGGACAUGAGGAUCACCCAUGUGCUUGCGUCUGAGUACAGAUGCUA [Mat - Exclusion NG 1 - Mod of JL - D6] (Eterna round: R96, puzzle: Exclusion NG 1) .
91.8

# iterate: AAAUAGCGAGGAUAUACUCCAAUAGCAAAUAUUCCCAUGGCACAUGAGGAUCACCCAUGUAGAAGGCGCAGUAA (Eterna round: R97, puzzle: Exclusion 2)
44.4

# iterate: AAGUAGGGAGGAUAUACAUAGAUACAGAUUCAUGUAGAACUACAUGAGGAUCACCCAUGUAGAAGGCCCUAAUA [AJ 37] (Eterna round: R96, puzzle: Exclusion 2)
27.9

# iterate: UACACGGUAGGAUAUACGUAGAUGCAGGUUCGUGUGGUGCUACAUGAGGAUCACCCAUGUAGAAGGGCCAACGU [Mod 6 R3 JL-ex2-2.29 - Jieux - Exclusion 2] (Eterna round: R97, puzzle: Exclusion 2)
13.1

# iterate: CCUUGUCUGAAGGAUAUCCGCCGAAAAGGCAAGGGAGAAGGUUAGACAUGAGGAUCACCCAUGUGCCGGUGUAA [EX6 A.3] (Eterna round: R97, puzzle: Exclusion 6)
25.5

Sourced from the supplement of paper PMC9170038
